Attribution: paper PMC3747263

Provide the reported Kd of each item.
targetEntity: LecB (PA-IIL) (Pseudomonas aeruginosa)
Sequence (Q9HYN5 2-115 limits assumed): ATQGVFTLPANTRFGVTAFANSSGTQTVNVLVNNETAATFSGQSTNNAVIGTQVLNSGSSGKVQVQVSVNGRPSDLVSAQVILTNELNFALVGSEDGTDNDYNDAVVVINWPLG
reportedConditions: read-out: LecB / KD
Write the answer as a number in nM, unit excluded.

### Prompt For CC(=O)N[C@H]1[C@@H](O[C@H]2[C@@H](O)[C@@H](CO)OC(O)[C@@H]2O[C@@H]2O[C@@H](C)[C@@H](O)[C@@H](O)[C@@H]2O)O[C@H](CO)[C@H](O)[C@@H]1O (stereo partly shown) [A tri] , what is its reported Kd?
### Response 10300

### Prompt Record: CC(=O)N[C@H]1C(O)O[C@H](CO)[C@@H](O[C@@H]2O[C@H](CO)[C@H](O)[C@H](O)[C@H]2O[C@@H]2O[C@@H](C)[C@@H](O)[C@@H](O)[C@@H]2O)[C@@H]1O (stereo partly shown) [H type 2]
### Response 480

### Prompt Record: CC(=O)N[C@H]1[C@H]([C@H](O)[C@H](O)CO)O[C@@](O[C@H]2[C@@H](O)[C@@H](CO)O[C@@H](O[C@H]3[C@H](O[C@@H]4O[C@@H](C)[C@@H](O)[C@@H](O)[C@@H]4O)[C@@H](CO)OC(O)[C@@H]3NC(C)=O)[C@@H]2O)(C(=O)O)C[C@@H]1O (stereo partly shown) [sLe^a]
### Response 290

### Prompt Record: CC(=O)N[C@H]1C(O)O[C@H](CO)[C@@H](O)[C@@H]1O[C@@H]1O[C@H](CO)[C@H](O)[C@H](O)[C@H]1O[C@@H]1O[C@@H](C)[C@@H](O)[C@@H](O)[C@@H]1O (stereo partly shown) [H type 1]
### Response 1390
